Recorded measurements of melting point, one per entry

Past entries and their recorded results:
[
  {
    "COMPOUND": "CCCCCCC/C=C/C(=O)N1CCN(c2ccc(OC)cc2)CC1 [Compound 42]",
    "OBSERVED VALUE": "50 to 52 °C"
  },
  {
    "COMPOUND": "CCCCCCC/C=C/C(=O)N1CCN(C2CCCCC2)CC1 [Compound 23]",
    "OBSERVED VALUE": "33 to 34 °C"
  },
  {
    "COMPOUND": "CCCCCCC/C=C/C(=O)N1CCN(CC(=O)O)CC1.Cl [Compound 39]",
    "OBSERVED VALUE": "195 °C (dec.)"
  },
  {
    "COMPOUND": "CCCCCCC/C=C/C(=O)N1CCN(CCCC(=O)O)CC1.Cl [Compound 40]",
    "OBSERVED VALUE": "203 to 205 °C"
  }
]

Let's switch to this compound now.
# melting point (compound: CCCCCCC/C=C/C(=O)N1CCN(CCC(=O)O)CC1 [Compound 21] ) is 53 to 55 °C
